# Assay overview: Plasma exposure at day 7 in the MDA-MB-231 xenograft experiment
# Assay type: in vivo, Female BALB/c Mice
# Experimental setup: female, BALB/c, mouse, plasma, po; day 7, 300 mg/kg p.o.
Observed property: AUC (ng·h/mL)
Answers are plain numbers, in ng·h/mL.

Problem: Using known records, supply AUC for Cc1ccc(NC(=O)c2cccc(C(F)(F)F)c2)cc1-c1cc(C)c2c(N)n[nH]c2n1 [Compound A]
Result: 7920

* * *

# System tested: EphA2 (UniProt Ref: P29317) (Homo sapiens, UniProt P29317)
# Sequence (P29317 24-976): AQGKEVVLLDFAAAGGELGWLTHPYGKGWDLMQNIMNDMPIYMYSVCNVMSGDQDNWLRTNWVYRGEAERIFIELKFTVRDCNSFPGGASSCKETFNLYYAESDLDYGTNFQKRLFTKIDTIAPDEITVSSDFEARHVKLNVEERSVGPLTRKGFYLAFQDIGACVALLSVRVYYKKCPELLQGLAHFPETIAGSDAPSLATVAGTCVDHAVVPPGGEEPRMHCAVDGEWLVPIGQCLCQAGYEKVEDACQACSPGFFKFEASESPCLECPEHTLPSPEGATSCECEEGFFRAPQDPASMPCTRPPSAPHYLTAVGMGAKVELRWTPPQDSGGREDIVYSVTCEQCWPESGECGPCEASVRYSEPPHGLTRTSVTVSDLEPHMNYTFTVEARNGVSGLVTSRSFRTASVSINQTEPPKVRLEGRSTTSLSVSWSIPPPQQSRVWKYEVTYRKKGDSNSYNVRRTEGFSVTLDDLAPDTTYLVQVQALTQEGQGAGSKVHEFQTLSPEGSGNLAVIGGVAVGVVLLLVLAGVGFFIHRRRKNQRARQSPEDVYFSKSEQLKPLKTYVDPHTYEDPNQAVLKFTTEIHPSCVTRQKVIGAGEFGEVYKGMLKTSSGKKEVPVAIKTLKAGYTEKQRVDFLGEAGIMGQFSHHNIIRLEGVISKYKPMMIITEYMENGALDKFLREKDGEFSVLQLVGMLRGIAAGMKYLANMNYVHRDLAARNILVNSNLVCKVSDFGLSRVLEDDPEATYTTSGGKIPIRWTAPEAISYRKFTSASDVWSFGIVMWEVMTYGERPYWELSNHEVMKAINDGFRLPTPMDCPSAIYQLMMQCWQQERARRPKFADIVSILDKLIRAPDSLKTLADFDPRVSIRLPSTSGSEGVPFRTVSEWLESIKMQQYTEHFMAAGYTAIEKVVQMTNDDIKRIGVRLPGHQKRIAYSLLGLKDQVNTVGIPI
# Assay overview: EphA2 assay (Reaction Biology HotSpot radioactive kinase assay)
# Experimental setup: ATP 10 μM; read-out: EphA2 potency IC50
Observed property: IC50

| Molecule | System tested | Observed |
| --- | --- | --- |
| CCc1ccc(NC(=O)c2cc(OC)cc(OC)c2)cc1-c1ccc2c(CC)n[nH]c2n1 [Compound 32] | EphA2 (UniProt Ref: P29317) (Homo sapiens, UniProt P29317) | 50 to 100 nM |
| COc1cc(OC)cc(C(=O)Nc2ccc(C)c(-c3ccc4c([C@H](C)O)n[nH]c4n3)c2)c1 [Compound 47] | EphA2 (UniProt Ref: P29317) (Homo sapiens, UniProt P29317) | 0.01 to 25 nM |
| CCc1n[nH]c2nc(-c3cc(NC(=O)c4cc(OC)cc(OC)c4)cnc3C)ccc12 [Compound 13] | EphA2 (UniProt Ref: P29317) (Homo sapiens, UniProt P29317) | 50 to 100 nM |
| Cc1ccc(C(=O)Nc2cccc(C(F)(F)F)c2)cc1-c1ccc2c(C(O)CN3CCOCC3)n[nH]c2n1 (centres unmarked) [Compound 5] | EphA2 (UniProt Ref: P29317) (Homo sapiens, UniProt P29317) | 0.01 to 25 nM |
| Cc1ccc(NC(=O)c2cccc(C(F)(F)F)c2)cc1-c1ccc2c(C(C)O)n[nH]c2n1 (centres unmarked) [Compound 35] | EphA2 (UniProt Ref: P29317) (Homo sapiens, UniProt P29317) | 25 to 50 nM |

For each listed entry, give its IC50.
1. CCc1n[nH]c2nc(-c3cc(NC(=O)c4cc(C)cc(OCCCN)c4)ccc3C)ccc12 [Compound 31]
2. CCc1n[nH]c2nc(-c3cc(NC(=O)c4cc(OC)cc(OCCN)c4)ccc3C)ccc12 [Compound 39]
3. Cc1cc(C)cc(C(=O)Nc2ccc(C)c(-c3ccc4c(CO)n[nH]c4n3)c2)c1 [Compound 16]

Result:
0.01 to 25 nM
0.01 to 25 nM
0.01 to 25 nM

* * *

# System tested: Recombinant EphB2 (Homo sapiens, UniProt P29323)
# Sequence (P29323 19-986 isoform P29323-2 limits assumed): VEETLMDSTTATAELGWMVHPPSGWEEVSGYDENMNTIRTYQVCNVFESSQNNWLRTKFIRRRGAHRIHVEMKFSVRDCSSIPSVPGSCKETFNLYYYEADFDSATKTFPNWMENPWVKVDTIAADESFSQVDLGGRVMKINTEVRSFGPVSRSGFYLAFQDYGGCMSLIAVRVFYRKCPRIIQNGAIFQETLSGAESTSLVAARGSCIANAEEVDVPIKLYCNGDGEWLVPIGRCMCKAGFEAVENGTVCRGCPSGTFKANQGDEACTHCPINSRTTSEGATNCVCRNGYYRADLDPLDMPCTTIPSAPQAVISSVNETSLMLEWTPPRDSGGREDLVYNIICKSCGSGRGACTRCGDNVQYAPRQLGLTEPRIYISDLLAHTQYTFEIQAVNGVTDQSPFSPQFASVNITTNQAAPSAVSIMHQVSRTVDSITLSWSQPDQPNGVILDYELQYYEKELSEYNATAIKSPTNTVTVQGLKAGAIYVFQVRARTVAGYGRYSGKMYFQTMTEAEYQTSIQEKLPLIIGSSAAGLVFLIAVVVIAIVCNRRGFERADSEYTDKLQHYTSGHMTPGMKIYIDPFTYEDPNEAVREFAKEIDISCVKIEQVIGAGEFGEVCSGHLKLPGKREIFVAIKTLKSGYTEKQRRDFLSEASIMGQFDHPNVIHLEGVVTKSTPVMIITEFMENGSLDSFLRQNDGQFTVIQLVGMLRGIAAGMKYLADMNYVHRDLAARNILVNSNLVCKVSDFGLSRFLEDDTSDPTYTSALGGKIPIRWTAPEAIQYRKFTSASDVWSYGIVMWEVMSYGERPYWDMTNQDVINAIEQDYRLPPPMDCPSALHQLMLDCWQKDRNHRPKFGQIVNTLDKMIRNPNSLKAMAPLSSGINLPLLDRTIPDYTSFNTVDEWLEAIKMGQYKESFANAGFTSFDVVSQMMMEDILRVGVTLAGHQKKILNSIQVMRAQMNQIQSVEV
# Assay overview: EphB2 assay (33P incorporation into poly GT, filter plate)
# Experimental setup: read-out: EphB2 potency IC50
pIC50: −log10 of the molar value.
Observed property: pIC50

Worked set:
| Compound | System tested | Observed property | Observed |
| --- | --- | --- | --- |
| Cc1ccc(NC(=O)c2cccc(C(F)(F)F)c2)cc1-c1ccc2c([C@H](C)O)n[nH]c2n1 | Recombinant EphB2 (Homo sapiens, UniProt P29323) | pIC50 | 7.60 to 11.00 |
| CCc1n[nH]c2nc(-c3cc(NC(=O)c4cc(OC)cc(C5CC5)c4)cnc3C)ccc12 | Recombinant EphB2 (Homo sapiens, UniProt P29323) | pIC50 | < 7.00 |
| CCc1n[nH]c2nc(-c3cc(NC(=O)c4cc(OC)cc(OC)c4)cnc3C)ccc12 | Recombinant EphB2 (Homo sapiens, UniProt P29323) | pIC50 | 7.00 to 7.30 |
| CCc1n[nH]c2nc(-c3cc(NC(=O)c4cc(OC)cc(OCCCN)c4)cnc3C)ccc12 | Recombinant EphB2 (Homo sapiens, UniProt P29323) | pIC50 | 7.30 to 7.60 |
| COc1cc(OC)cc(C(=O)Nc2ccc(C)c(-c3ccc4c(C5(O)CC5)n[nH]c4n3)c2)c1 | Recombinant EphB2 (Homo sapiens, UniProt P29323) | pIC50 | 7.60 to 11.00 |
| CCc1n[nH]c2nc(-c3cc(NC(=O)c4cc(OC)cc(C(F)(F)F)c4)cnc3C)ccc12 | Recombinant EphB2 (Homo sapiens, UniProt P29323) | pIC50 | < 7.00 |
| Cc1ccc(NC(=O)c2cccc(N(C)C)c2)cc1-c1ccc2c(C(O)CN3CCOCC3)n[nH]c2n1 (stereo not drawn) | Recombinant EphB2 (Homo sapiens, UniProt P29323) | pIC50 | 7.30 to 7.60 |
| CCc1n[nH]c2nc(-c3cc(NC(=O)c4cc(C)cc(OCCOC)c4)ccc3C)ccc12 | Recombinant EphB2 (Homo sapiens, UniProt P29323) | pIC50 | 7.60 to 11.00 |

For every record below, what is its pIC50?
1. Cc1ccc(NC(=O)c2cccc(C(F)(F)F)c2)cc1-c1ccc2c([C@@H](C)O)n[nH]c2n1
2. CCc1n[nH]c2nc(-c3cc(NC(=O)c4cc(C)cc(OCCCN)c4)ccc3C)ccc12
3. CCc1n[nH]c2nc(-c3cc(NC(=O)c4cc(C)cc(OCCN)c4)ccc3C)ccc12
4. COc1cc(OC)cc(C(=O)Nc2ccc(C)c(-c3ccc4c(C(C)O)n[nH]c4n3)c2)c1 (stereo not drawn)

Result:
["7.60 to 11.00", "7.60 to 11.00", "7.60 to 11.00", "7.30 to 7.60"]

* * *

# System tested: Recombinant EphA7 (Homo sapiens, UniProt Q15375)
# Construct: purchased Carna 08-126
# Sequence (Q15375 579-998 limits assumed): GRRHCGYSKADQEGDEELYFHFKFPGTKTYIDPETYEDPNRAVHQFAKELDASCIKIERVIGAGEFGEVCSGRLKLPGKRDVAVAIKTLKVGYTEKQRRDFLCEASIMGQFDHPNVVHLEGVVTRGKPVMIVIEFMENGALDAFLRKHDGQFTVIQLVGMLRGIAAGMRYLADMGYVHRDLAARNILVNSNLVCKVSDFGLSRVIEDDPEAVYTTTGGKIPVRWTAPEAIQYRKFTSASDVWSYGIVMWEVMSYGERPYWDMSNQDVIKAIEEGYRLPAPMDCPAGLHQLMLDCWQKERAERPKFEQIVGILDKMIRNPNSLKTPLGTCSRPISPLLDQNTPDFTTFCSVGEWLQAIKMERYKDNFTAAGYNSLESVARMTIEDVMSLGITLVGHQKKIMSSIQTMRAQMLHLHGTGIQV
# Assay overview: EphA7 assay (33P incorporation into poly GT, filter plate)
# Assay type: biochemical
# Experimental setup: EphA7 potency; 0.15 μM ATP; read-out: IC50
Provide the recorded IC50 for the entries that follow.

Example molecules with recorded IC50:
| Molecule | Observed property | Observed |
| --- | --- | --- |
| Cc1cccc(C(=O)Nc2ccc(C)c(-c3ccc4c(C(O)CN5CCOCC5)n[nH]c4n3)c2)c1 (stereo not shown) [Compound 3] | IC50 | > 1000 nM |
| COc1cc(OC)cc(C(=O)Nc2ccc(C)c(-c3ccc4c(C(O)CN5CCOCC5)n[nH]c4n3)c2)c1 (stereo not shown) [Compound 4] | IC50 | > 1000 nM |
| Cc1cc(OCCN2CCOCC2)cc(C(=O)Nc2ccc(C)c(-c3ccc4c(C(C)O)n[nH]c4n3)c2)c1 (stereo not shown) [Compound 28] | IC50 | > 1000 nM |
| CCc1n[nH]c2nc(-c3cc(NC(=O)c4cc(OC)cc(C(F)(F)F)c4)cnc3C)ccc12 [Compound 49] | IC50 | > 1000 nM |

List reported IC50 for each of these molecules:
1. CCc1n[nH]c2nc(-c3cc(NC(=O)c4cc(OCCN5CCOCC5)cc(C5CC5)c4)cnc3C)ccc12 [Compound 43]
2. CCc1n[nH]c2nc(-c3cc(NC(=O)c4cc(C)cc(OCCCN)c4)ccc3C)ccc12 [Compound 31]
3. CCc1n[nH]c2nc(-c3cc(NC(=O)c4cc(C)cc(OCCOC)c4)ccc3C)ccc12 [Compound 21]

Result:
1: 0.01 to 250 nM; 2: 0.01 to 250 nM; 3: > 1000 nM
